Test: Stability evaluation: odor of sample solution after storage at 50° C. for 1 month
Conditions: 5% by weight sample solution, sealed, 50° C., 1 month; odor, average of 5 panelists (3: no degradation odor, 1: strong degradation odor)
readout-label: Stability

molecule: O=C(O)[C@@H]1CCCN1CC(O)CO (stereo partly drawn)
Stability: Δ
--
molecule: N[C@@H](CCC(=O)[O-])C(=O)[O-].O.[Na+].[Na+] [Sodium glutamate hydrate]
Stability: Δ
--
molecule: O=C(O)CNCC(O)CO (stereo not drawn)
Stability: Δ
--
molecule: CNCC(=O)O
Stability: Δ
--
molecule: Cl.NCCCC[C@H](NCC(O)CO)C(=O)O (stereo partly drawn) [Glyceryl derivative of lysine, N-glyceryllysine hydrochloride]
Stability: Δ
--
molecule: CC(O)CCO (stereo not drawn)
Stability: Δ
--
molecule: Cl.NCCCC[C@H](N)C(=O)O [Lysine hydrochloride]
Stability: Δ

Moving on to another molecule below.
[Q] // Input: C[C@H](NCC(O)CO)C(=O)O (stereo partly drawn) . Output its Stability only.
[A] Δ

Attribution: patent US20060018864A1
